Entries and their measured TCF/Wnt firefly luciferase reporter signal follow.
- System: SW480
- assayOverview: TCF/Wnt firefly luciferase reporter signal relative to plate median (fraction of plate median); higher = higher Wnt reporter signal
- runParameters: 5 µM; treatment time 24 h; reporter: 7TFP
Answer with a bare number; do not write a unit.

molecule: CC1(C)S[C@@H]2[C@H](NC(=O)C(C(=O)O)c3ccccc3)C(=O)N2[C@H]1C(=O)O (stereo partly drawn)
val: 1.05

molecule: O=C(O)c1cn(-c2ccc(F)cc2)c2cc(N3CCNCC3)c(F)cc2c1=O
val: 1.06

As a next step, examine the molecule that follows.
Problem: Which TCF/Wnt firefly luciferase reporter signal value is on record for Cc1ccc(C(=O)Nc2ccc(S(=O)(=O)O)c3cc(S(=O)(=O)O)cc(S(=O)(=O)O)c23)cc1NC(=O)c1cccc(NC(=O)Nc2cccc(C(=O)Nc3cc(C(=O)Nc4ccc(S(=O)(=O)O)c5cc(S(=O)(=O)O)cc(S(=O)(=O)O)c45)ccc3C)c2)c1 ?
Solution: 0.954
